test system: A549 (IMP-3+, HLA-A2-); assay: 51Cr release assay of peptide-induced CTLs against cancer cell line; format: cell-based, human; conditions: CTLs induced from PBMCs of healthy donor 2 (FIG. 5A)
Residues, ends and D or L forms follow the SMILES beside them.

[
  {
    "COMPOUND": "CC(C)C[C@H](NC(=O)[C@H](CC(C)C)NC(=O)[C@@H](N)CCCNC(=N)N)C(=O)N[C@H](C(=O)N1CCC[C@H]1C(=O)N[C@H](C(=O)N[C@@H](CCC(N)=O)C(=O)N[C@@H](Cc1ccccc1)C(=O)N[C@H](C(=O)O)C(C)C)[C@@H](C)O)C(C)C [SEQ ID NO: 1, RLLVPTQFV] (H-RLLVPTQFV-OH)",
    "cytotoxic activity": "no cytotoxic activity"
  },
  {
    "COMPOUND": "CC[C@H](C)[C@H](NC(=O)[C@H](CCC(=O)O)NC(=O)[C@H](CCC(N)=O)NC(=O)[C@@H](NC(=O)[C@@H](N)CCCCN)[C@@H](C)CC)C(=O)N[C@@H](CC(C)C)C(=O)N[C@H](C(=O)N[C@@H](CCC(N)=O)C(=O)N[C@H](C(=O)O)C(C)C)[C@@H](C)O [SEQ ID NO: 3, KIQEILTQV] (H-KIQEILTQV-OH)",
    "cytotoxic activity": "no cytotoxic activity"
  },
  {
    "COMPOUND": "CC[C@H](C)[C@H](NC(=O)[C@@H](N)CCCCN)C(=O)N1CCC[C@H]1C(=O)N[C@H](C(=O)N[C@@H](CO)C(=O)NCC(=O)N1CCC[C@H]1C(=O)N[C@@H](Cc1ccccc1)C(=O)N[C@@H](CC(C)C)C(=O)O)C(C)C [SEQ ID NO: 5, KIPVSGPFL] (H-KIPVSGPFL-OH)",
    "cytotoxic activity": "no cytotoxic activity"
  },
  {
    "COMPOUND": "CC(C)C[C@H](NC(=O)[C@@H](N)CC(N)=O)C(=O)N[C@@H](CO)C(=O)N[C@@H](CO)C(=O)N[C@@H](C)C(=O)N[C@@H](CCC(=O)O)C(=O)N[C@H](C(=O)N[C@H](C(=O)N[C@H](C(=O)O)C(C)C)C(C)C)C(C)C [SEQ ID NO: 6, NLSSAEVVV] (H-NLSSAEVVV-OH)",
    "cytotoxic activity": "no cytotoxic activity"
  }
]
